System: pAKT in JIMT-1 cells
Assay: pAKT IC50 in JIMT-1 cancer cell line
Type: cell-based
Conditions: Homo sapiens; JIMT-1, breast; HER2 amplification, PIK3CA C420R
pIC50: −log10 of the molar value.
outcome measure: pIC50

>>> value_reported("C=CC(=O)N1CCc2nc(-c3nc(-c4ccc5c(c4)CCNC5)c4ccsc4c3-c3ccc(F)cc3OCCOC)sc2C1")
7.29

* * *

Experiment: Pharmacokinetic profile in male CD-1 mice
Assay type: in vivo
Conditions: mouse, plasma, oral dose 30 mg/kg vs 3 mg/kg IV
outcome measure: bioavailability

>>> value_reported("C=CC(=O)N1CCc2nc(-c3nc(-c4ccc5c(c4)CCNC5)c4ccsc4c3-c3ccc(F)cc3OCCOC)sc2C1")
"71%"
